- target or test system: Voltage-gated inwardly rectifying potassium channel KCNH2 (Homo sapiens)
- Sequence (Q12809 whole entry): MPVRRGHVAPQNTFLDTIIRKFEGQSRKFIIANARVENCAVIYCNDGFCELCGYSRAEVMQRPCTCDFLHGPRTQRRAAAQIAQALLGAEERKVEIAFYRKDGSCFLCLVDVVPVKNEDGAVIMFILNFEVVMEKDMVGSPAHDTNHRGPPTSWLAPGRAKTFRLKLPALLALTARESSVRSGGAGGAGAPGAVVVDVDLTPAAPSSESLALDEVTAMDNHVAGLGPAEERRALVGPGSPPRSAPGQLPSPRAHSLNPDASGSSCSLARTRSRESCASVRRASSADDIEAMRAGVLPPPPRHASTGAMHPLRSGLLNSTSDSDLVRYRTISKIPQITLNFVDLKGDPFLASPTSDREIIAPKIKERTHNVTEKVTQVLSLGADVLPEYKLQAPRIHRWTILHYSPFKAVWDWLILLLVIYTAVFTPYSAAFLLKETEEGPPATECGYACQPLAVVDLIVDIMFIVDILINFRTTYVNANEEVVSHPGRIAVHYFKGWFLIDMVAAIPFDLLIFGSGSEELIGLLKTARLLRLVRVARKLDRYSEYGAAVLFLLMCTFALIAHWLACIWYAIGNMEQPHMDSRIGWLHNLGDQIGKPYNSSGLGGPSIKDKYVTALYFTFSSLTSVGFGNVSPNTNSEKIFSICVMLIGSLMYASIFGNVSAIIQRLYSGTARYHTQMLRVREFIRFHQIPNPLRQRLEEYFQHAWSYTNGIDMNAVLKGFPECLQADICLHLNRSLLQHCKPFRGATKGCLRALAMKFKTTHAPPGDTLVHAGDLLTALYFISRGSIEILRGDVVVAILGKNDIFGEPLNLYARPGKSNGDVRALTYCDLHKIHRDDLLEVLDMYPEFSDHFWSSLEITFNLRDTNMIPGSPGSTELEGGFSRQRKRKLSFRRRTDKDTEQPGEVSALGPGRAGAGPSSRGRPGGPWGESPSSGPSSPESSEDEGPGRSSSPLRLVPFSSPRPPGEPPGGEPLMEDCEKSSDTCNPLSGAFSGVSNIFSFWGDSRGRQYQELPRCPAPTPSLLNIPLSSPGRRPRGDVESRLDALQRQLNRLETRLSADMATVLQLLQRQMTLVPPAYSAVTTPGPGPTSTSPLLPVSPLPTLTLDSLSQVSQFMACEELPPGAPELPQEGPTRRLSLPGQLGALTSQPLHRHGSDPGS
pIC50: −log10 of the molar value.
measured endpoint: pIC50

* N#C/C=C/c1ccc2c(S(=O)(=O)n3nc(Nc4ccc(C#N)c(Cl)c4)nc3N)cccc2c1 | 4.94

====

- assay method text: Selectivity index, ratio of CC50 for cytotoxicity against human TZM-bl cells assessed as reduction in cell viability by MTS assay to EC50 for antiviral activity against wild type HIV1 IIIB infected in human TZM-bl cells
- Type: toxicity, cell-based
- run conditions: read-out: Ratio CC50/EC50
Field 'label' (enum: Satisfied / Not satisfied). Set to Satisfied when selectivity ratio is strictly under 10000; else Not satisfied.

- N#C/C=C/c1ccc2c(S(=O)(=O)n3nc(Nc4ccc(CC#N)cc4)nc3N)cccc2c1: Satisfied
- N#Cc1ccc2c(S(=O)(=O)n3nc(Nc4ccc(C#N)c(C#N)c4)nc3N)cccc2c1: Not satisfied
- N#Cc1ccc(Nc2nc(N)n(S(=O)(=O)c3cccc4cc(C#N)ccc34)n2)cc1: Not satisfied
- N#Cc1ccc2c(S(=O)(=O)n3nc(Nc4ccc(C#N)c(Cl)c4)nc3N)cccc2c1: Not satisfied
